System: cGAS activity in THP1 cells (IFNb as marker)
METHOD NOTES: Cellular assay to measure cGAS activity (IFNb production in PMA-differentiated THP1 cells stimulated by RDG-Adenovirus-GFP)
Type: cell-based, human
CONDITION DETAILS: Homo sapiens, THP-1, THP1 cells, PMA differentiated, RDG-Adenovirus-GFP 1000 MOI, IFNb AlphaLISA, overnight incubation; read-out: IC50 (μM), Cellular assay for Compounds 95-348
Where a name gives a salt, the structure may show the parent alone.
RECORDED METRIC: IC50 (µM)

IC50 reading for NCCn1cc(-n2cc(-c3cn[nH]c3)c3ccc(Cl)c(Cl)c32)nn1 [Example 214, hydrochloride] : 0.885

Memo: CC(=O)N[C@@H]1CCn2c1c(-c1cn[nH]c1)c1c(OCC#N)cc(Cl)c(Cl)c12 [Example 234] , reported IC50: 1.72

get_value(item= CN(C)C(=O)CCC(=O)N1CCn2c(c(-c3cn[nH]c3)c3c(NC(=O)C(F)F)cc(Cl)c(Cl)c32)C1 [Example 275] , readout=IC50) returns 4.01

Reported IC50 of CC(=O)N1CCn2c(c(-c3cn[nH]c3)c3c(OCC#N)cc(Cl)c(Cl)c32)C1 [Example 280] : 0.872

Memo: NC(=O)Cn1cc(-n2cc(-c3cn[nH]c3)c3ccc(Cl)cc32)nn1 [Example 227] , reported IC50: 1.6

A = OCCCOc1cc(Cl)c(Cl)c2[nH]c(CO)c(-c3cn[nH]c3)c12 [Example 338]
B = O=C(Nc1cc(Cl)c(Cl)c2[nH]cc(-c3cn[nH]c3)c12)C(F)(F)CO [Example 169]
I'd appreciate it if you could identify which of A and B has the greater IC50. Provide the label of your selected option as the answer.
B

1 = OCc1nnc(-c2[nH]c3c(Cl)c(Cl)ccc3c2-c2cn[nH]c2)o1 [Example 157]
2 = O=C(NC1CCc2c(-c3cn[nH]c3)c3ccc(Cl)c(Cl)c3n2C1)C1(O)CCOCC1 (centres unmarked) [Example 190]
3 = Cc1nnc(-c2[nH]c3c(Cl)c(Cl)ccc3c2-c2cn[nH]c2)o1 [Example 127]
// ranking: key=IC50, reverse=True Output spec: a listing of the labels in the requested order.
2, 1, 3
(2: 2.19 µM, 1: 0.331 µM, 3: 0.216 µM)

###

Test system: cGAS activity in THP1 cells (IFNb as marker)
METHOD NOTES: Cellular assay to measure cGAS activity (IFNb production in PMA-differentiated THP1 cells stimulated by RDG-Adenovirus-GFP)
Type: cell-based, human
CONDITION DETAILS: Homo sapiens, THP-1, THP1 cells, PMA differentiated, RDG-Adenovirus-GFP 1000 MOI, IFNb AlphaLISA, overnight incubation; read-out: IC50 (μM), Cellular assay for Compounds 95-348
RECORDED METRIC: IC50 (µM)

A = Cn1cc(-n2cc(-c3cn[nH]c3)c3ccc(Cl)cc32)nn1
B = CN1CCOC[C@H]1CC(=O)N1CCn2c(c(-c3cn[nH]c3)c3c(OCC#N)cc(Cl)c(Cl)c32)C1
C = COCc1[nH]c2c(Cl)c(Cl)cc(NC(=O)C(F)F)c2c1-c1cn[nH]c1
D = O=C(CO)Nc1cc(Cl)c(Cl)c2[nH]nc(-c3cn[nH]c3)c12
Your job: order these 4 records by IC50, ascending. In your reply, arrange the labels in the requested order.
C, D, B, A
(C: 0.317 µM, D: 0.492 µM, B: 1.12 µM, A: 2.02 µM)

###

SYSTEM: recombinant human cGAS (Homo sapiens (Human))
METHOD NOTES: In vitro inhibition assay of cGAS activity (cGAMP production, RapidFire mass spectrometry)
Type: biochemical
CONDITION DETAILS: 10 nM recombinant human cGAS, 60 nM 75-bp dsDNA, ATP, GTP, room temperature 3 hours, read-out: IC50 (μM), In vitro inhibition assay for Compounds 95-348
RECORDED METRIC: IC50 (µM)

Looking up COCCC(=O)NC1CCn2c1c(-c1cn[nH]c1)c1ccc(Cl)c(Cl)c12 (stereo not shown) , I see its IC50 listed as 0.0642

Kindly note the recorded IC50 for COc1cc(Cl)cc2c1c(-c1cn[nH]c1)cn2-c1cn(CCO)nn1 , which is 0.0616

1 = O=C1NCC(C(=O)N2CCn3c(c(-c4cn[nH]c4)c4ccc(Cl)c(Cl)c43)C2)O1 (single isomer, unassigned) [Example 260]
2 = CN1CCC(C(=O)N2CCn3c(c(-c4cn[nH]c4)c4ccc(Cl)c(Cl)c43)C2)CC1=O (stereo not shown)
Of 1 and 2 , whose reported IC50 is the larger number? Your choice should be expressed through its label.
2

###

Test system: cGAS activity in THP1 cells (IFNb as marker)
METHOD NOTES: Cellular assay to measure cGAS activity (IFNb production in PMA-differentiated THP1 cells stimulated by RDG-Adenovirus-GFP)
Assay type: cell-based, human
CONDITION DETAILS: Homo sapiens, THP-1, THP1 cells, PMA differentiated, RDG-Adenovirus-GFP 1000 MOI, IFNb AlphaLISA, overnight incubation; read-out: IC50 (μM), Cellular assay for Compounds 95-348
RECORDED METRIC: IC50 (µM)

Sample answers from the record:
The molecule identified as O[C@H]1CC[C@@H](Nc2cc(Cl)c(Cl)c3[nH]cc(-c4cn[nH]c4)c23)C1 (single isomer, unassigned; isomer 2) [Example 210] registered its IC50 at 2.17

Per the record, N#CCOc1cc(Cl)c(Cl)c2c1c(-c1cn[nH]c1)c1n2CCC1CO (stereo not shown) [Example 347] has IC50 of 0.865

1 = N#CCOc1cc(Cl)c(Cl)c2c1c(-c1cn[nH]c1)c1n2CC[C@@H]1NC(=O)CO [Example 344]
2 = CN1CC(C(=O)N2CCn3c(c(-c4cn[nH]c4)c4c(OCC#N)cc(Cl)c(Cl)c43)C2)CC1=O (stereo not shown) [Example 291]
Lab note: check whether 1 or 2 shows the higher recorded IC50. Kindly give the label for the entry you pick.
2

###

SYSTEM: recombinant human cGAS (Homo sapiens (Human), UniProt Q8N884)
Sequence (Q8N884 whole entry): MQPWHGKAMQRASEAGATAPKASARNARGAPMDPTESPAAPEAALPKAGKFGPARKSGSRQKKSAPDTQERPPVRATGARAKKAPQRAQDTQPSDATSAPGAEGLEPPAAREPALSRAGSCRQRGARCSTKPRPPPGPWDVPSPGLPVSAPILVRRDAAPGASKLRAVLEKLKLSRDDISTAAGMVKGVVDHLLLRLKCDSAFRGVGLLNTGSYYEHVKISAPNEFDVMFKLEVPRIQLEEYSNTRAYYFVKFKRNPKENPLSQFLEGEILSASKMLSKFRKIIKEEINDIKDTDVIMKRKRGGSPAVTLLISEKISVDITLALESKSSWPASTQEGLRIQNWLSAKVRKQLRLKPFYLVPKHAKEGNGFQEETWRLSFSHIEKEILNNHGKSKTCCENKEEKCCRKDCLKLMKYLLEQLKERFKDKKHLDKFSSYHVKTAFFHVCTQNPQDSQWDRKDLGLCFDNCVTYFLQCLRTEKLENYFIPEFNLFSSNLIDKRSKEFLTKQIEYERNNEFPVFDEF
METHOD NOTES: In vitro inhibition assay of cGAS activity (cGAMP production, RapidFire mass spectrometry)
Type: biochemical
CONDITION DETAILS: 10 nM recombinant human cGAS, 60 nM 75-bp dsDNA, ATP, GTP, room temperature 3 hours, read-out: IC50 (μM), In vitro inhibition assay for Compounds 1-94
RECORDED METRIC: IC50 (µM)

Input CC(=O)NC1CCn2c1c(-c1cn[nH]c1)c1ccc(Cl)c(Cl)c12 (single isomer, unassigned) [Example 26] . Output IC50: 0.0229

The recorded IC50 for O=C1Cn2c(c(-c3cn[nH]c3)c3ccc(Cl)c(Cl)c32)CCN1 is 0.0436

A = O[C@H]1C[C@@H](Nc2cc(Cl)c(Cl)c3[nH]cc(-c4cn[nH]c4)c23)C1
B = CN1CCn2c(c(-c3cn[nH]c3)c3c(OCC#N)cc(Cl)c(Cl)c32)C1=O
Could you check which of A and B has a smaller value for IC50? Kindly give the label for the entry you pick.
B
(B: 0.0257 µM, A: 0.0371 µM)

###

Tested on: cGAS activity in THP1 cells (IFNb as marker)
METHOD NOTES: Cellular assay to measure cGAS activity (IFNb production in PMA-differentiated THP1 cells stimulated by RDG-Adenovirus-GFP)
Assay type: cell-based, human
CONDITION DETAILS: Homo sapiens, THP-1, THP1 cells, PMA differentiated, RDG-Adenovirus-GFP 1000 MOI, IFNb AlphaLISA, overnight incubation; read-out: IC50 (μM), Cellular assay for Compounds 95-348
Experimental: Cellular assay to measure cGAS activity: Use THP1 cell line from ATCC to determine inhibition of cGAS activity by test compounds in human cells. Plate cells on 96-well plates at 0.2×10^6/well and differentiate with phorbol myristate acetate (PMA) at 37° C./5% CO2. […] Measure quantification of IFNb with an IFNb AlphaLISA Detection kit (Perkin Elmer AL3133F) by mixing the acceptor beads with the cell supernatant followed by the addition of the biotinylated antibody and donor beads. […]
RECORDED METRIC: IC50 (µM)

Answered examples (5):
Given the molecule O=C(CO)NC1CCc2c(-c3cn[nH]c3)c3ccc(Cl)c(Cl)c3n2C1 (centres unmarked) [Example 95] and test system cGAS activity in THP1 cells (IFNb as marker), the measured IC50 is 2.06

Log: cGAS activity in THP1 cells (IFNb as marker), molecule O=C(CO)NC1CCn2c1c(-c1cn[nH]c1)c1ccc(Cl)c(Cl)c12 (centres unmarked) [Example 237] , IC50 = 1.74

// assay cGAS activity in THP1 cells (IFNb as marker), entry O=C(Nc1cc(Cl)c(Cl)c2c1c(-c1cn[nH]c1)c1n2CCN(C(=O)Cc2cnccn2)C1)C(F)F [Example 277] , IC50 value = 1.58

IC50 for cGAS activity in THP1 cells (IFNb as marker) with input O=C(Cc1[nH]c2c(Cl)c(Cl)ccc2c1-c1cn[nH]c1)NCc1cc[nH]n1 [Example 178] equals 3.62

Form field IC50 for item FC(F)CCNc1cc(Cl)c(Cl)c2[nH]cc(-c3cn[nH]c3)c12 [Example 188] on cGAS activity in THP1 cells (IFNb as marker): 2.45

A = CC(C)(O)C(=O)NC1CCc2c(-c3cn[nH]c3)c3ccc(Cl)c(Cl)c3n2C1 (centres unmarked) [Example 189]
B = OCCn1cc(-n2cc(-c3cn[nH]c3)c3ccc(Cl)c(Cl)c32)nn1 [Example 138]
Form field 'greater IC50' accepts A or B ; which applies? State your choice using its label.
B
(B: 4.99 µM, A: 1.89 µM)

Where do these numbers come from? They come from patent US20230391786A1.
